Each recorded value in this set is attributed to patent US20030186954A1.

- runDescription: Levels of estriol in saliva of human volunteers treated with skin cream
- Type: in vivo
- runParameters: topical, human, ten minutes following application of 20 mg of estriol in skin cream, read-out: Salivary concentration of estriol
parameter: concentration at 10 min (ng/mL)
Please give a number only; it is taken to be in ng/mL.

Report measured concentration at 10 min; entry is C[C@]12CC[C@@H]3c4ccc(O)cc4CC[C@H]3[C@@H]1C[C@@H](O)[C@@H]2O [Estriol]
10
